From: patent US20220177583A1

A collection of binders and their measured FACS signal
# test target: T1, human CLDN6, endogenously expressed on cancer cell lines (human, UniProt P56747 1-220)
# T1 construct: also called Endogenous CLDN6+; CLDN6 on ARK2, OVCA429, UMUC4 cells
# T1 sequence: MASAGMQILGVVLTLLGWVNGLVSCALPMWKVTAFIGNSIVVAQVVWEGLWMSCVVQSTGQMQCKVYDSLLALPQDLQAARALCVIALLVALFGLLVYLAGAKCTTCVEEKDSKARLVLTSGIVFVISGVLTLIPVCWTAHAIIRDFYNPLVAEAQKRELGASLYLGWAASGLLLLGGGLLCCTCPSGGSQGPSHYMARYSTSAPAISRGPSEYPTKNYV
# experiment description: FACS, OVCA429 cells, 1.5 ug Ab
Form rule: numeric answer, no unit written next to it.

Example results:
{"columns": ["binder", "FACS signal"],
 "data": [
  ["AB11-2 (antibody, V domains shown, Humanized; also called humanized AB 11-2) VH: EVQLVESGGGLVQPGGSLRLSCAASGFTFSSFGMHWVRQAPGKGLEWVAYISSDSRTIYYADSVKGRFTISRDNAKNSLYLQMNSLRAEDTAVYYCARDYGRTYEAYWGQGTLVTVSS VL: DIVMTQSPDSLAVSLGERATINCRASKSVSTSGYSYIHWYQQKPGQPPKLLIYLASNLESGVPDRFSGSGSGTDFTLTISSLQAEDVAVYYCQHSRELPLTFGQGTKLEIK", 2690],
  ["AB4-3 (antibody, V domains shown, Humanized; also called humanized AB 4-3) VH: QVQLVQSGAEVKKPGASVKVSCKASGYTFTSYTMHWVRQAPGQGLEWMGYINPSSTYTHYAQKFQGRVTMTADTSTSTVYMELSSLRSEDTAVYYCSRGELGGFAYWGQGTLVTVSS VL: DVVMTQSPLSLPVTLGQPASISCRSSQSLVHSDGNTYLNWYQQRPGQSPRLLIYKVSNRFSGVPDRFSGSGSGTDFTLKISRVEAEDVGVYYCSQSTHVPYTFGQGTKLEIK", 1160],
  ["AB1-8 (antibody, V domains shown, Humanized; also called humanized AB 1-8) VH: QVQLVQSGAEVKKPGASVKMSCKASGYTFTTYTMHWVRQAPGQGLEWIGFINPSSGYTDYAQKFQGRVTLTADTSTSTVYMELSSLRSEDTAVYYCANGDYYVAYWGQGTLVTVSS VL: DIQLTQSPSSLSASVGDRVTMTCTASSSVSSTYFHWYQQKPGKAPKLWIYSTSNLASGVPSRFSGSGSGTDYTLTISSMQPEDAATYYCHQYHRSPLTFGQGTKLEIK", 66000],
  ["AB9-3 (antibody, V domains shown, Humanized; also called humanized AB 9-3) VH: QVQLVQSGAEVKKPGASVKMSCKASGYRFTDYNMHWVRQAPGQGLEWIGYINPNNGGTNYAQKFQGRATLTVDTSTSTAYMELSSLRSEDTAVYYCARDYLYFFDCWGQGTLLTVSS VL: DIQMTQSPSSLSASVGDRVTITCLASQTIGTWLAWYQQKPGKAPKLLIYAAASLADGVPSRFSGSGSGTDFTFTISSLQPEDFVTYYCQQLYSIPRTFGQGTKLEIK", 1260]
]}

# context switch: different binder, same FACS signal
Ask: Which FACS signal is reported for this binder? AB9-4 (antibody, V domains shown, Humanized; also called humanized AB 9-4) VH: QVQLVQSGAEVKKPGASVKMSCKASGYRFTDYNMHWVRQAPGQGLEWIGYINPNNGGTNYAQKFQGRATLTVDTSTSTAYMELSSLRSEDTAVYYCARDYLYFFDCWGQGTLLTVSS VL: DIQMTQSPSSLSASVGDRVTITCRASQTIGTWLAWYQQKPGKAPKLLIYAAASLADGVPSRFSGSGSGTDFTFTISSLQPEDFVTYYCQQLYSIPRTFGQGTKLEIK
Result: 1110
